Cited source for all entries: patent US20140086881A1

- Tested on: HBV in HepG2.2.15
- MEASUREMENT_DESCRIPTION: Anti-HBV potency in stable HBV cell line (HBV DNA real time PCR)
- Assay type: cell-based
- CONDITION_INFO: Hepatitis B virus
OBSERVABLE: EC50 (nM)
The answer is to be given in nM; state only the numeric part.

GET /values?readout=EC50&item= Nc1ccn([C@@H]2CS[C@H](CO)O2)c(=O)n1
6.2
